- Method: The drug is tested on Z-008 corresponding to metagenome with ENA study accession number: PRJEB37062 and ENA sample accession number: ERS12561808 for biotransformation under anaerobic condition. The drug concentrations were measured over 9 timepoints collected between 0 and 24 hours of incubation by liquid-chromatography-coupled mass spectrometry (LC–MS); note: call rule not given here
- Run parameters: 2 µM
Value kind: Bacterial Biotransformation

Example entries and their recorded answers appear below.
{"Compound": "CN(C)CCc1c[nH]c2ccc(Cn3cncn3)cc12.O=C(O)c1ccccc1 [RIZATRIPTAN BENZOATE]", "Bacterial Biotransformation": "Compound NOT metabolized"}
{"Compound": "CN1CC(=O)N2[C@H](c3ccc4c(c3)OCO4)c3[nH]c4ccccc4c3C[C@@H]2C1=O", "Bacterial Biotransformation": "Compound NOT metabolized"}
{"Compound": "C[C@@H](CO)NC(=O)[C@@H]1C=C2c3cccc4[nH]cc(c34)C[C@H]2N(C)C1.O=C(O)/C=C\\C(=O)O [ERGONOVINE MALEATE]", "Bacterial Biotransformation": "Compound NOT metabolized"}
{"Compound": "CCCCCOC(=O)Nc1nc(=O)n([C@@H]2O[C@H](C)[C@@H](O)[C@H]2O)cc1F [CAPECITABINE]", "Bacterial Biotransformation": "Compound NOT metabolized"}
{"Compound": "O=c1[nH]c2ccccc2n1C1CCN(CCCC(c2ccc(F)cc2)c2ccc(F)cc2)CC1 [PIMOZIDE]", "Bacterial Biotransformation": "Compound metabolized"}

So, CC(C)c1nc(CN(C)C(=O)N[C@H](C(=O)N[C@@H](Cc2ccccc2)C[C@H](O)[C@H](Cc2ccccc2)NC(=O)OCc2cncs2)C(C)C)cs1 [RITONAVIR] ? Its Bacterial Biotransformation was Compound metabolized

response.value for Cc1ccc(S(=O)(=O)NC(=O)NN2CCCCCC2)cc1 [TOLAZAMIDE] (field: Bacterial Biotransformation) = Compound NOT metabolized

---

- Method: The drug is tested on WLS-069 corresponding to human gut metagenome with ENA study accession number: PRJEB37062 and ENA sample accession number: ERS12561748 for biotransformation under anaerobic condition. The drug concentrations were measured over 9 timepoints collected between 0 and 24 hours of incubation by liquid-chromatography-coupled mass spectrometry (LC–MS)
- Run parameters: 2 µM
Value kind: Bacterial Biotransformation

{"Molecule": "O=c1[nH]c2ccccc2n1CCCN1CCC(n2c(=O)[nH]c3cc(Cl)ccc32)CC1", "Bacterial Biotransformation": "Compound NOT metabolized"}
{"Molecule": "COC(=O)C1=C(C)NC(C)=C(C(=O)OC(C)C)C1c1cccc2nonc12 (stereo unspecified)", "Bacterial Biotransformation": "Compound metabolized"}
{"Molecule": "CN(C)CCC=C1c2ccccc2C=Cc2ccccc21", "Bacterial Biotransformation": "Compound metabolized"}
{"Molecule": "CCCc1nc(C(C)(C)O)c(C(=O)OCc2oc(=O)oc2C)n1Cc1ccc(-c2ccccc2-c2nnn[nH]2)cc1", "Bacterial Biotransformation": "Compound metabolized"}
{"Molecule": "C[C@@H](CO)NC(=O)[C@@H]1C=C2c3cccc4[nH]cc(c34)C[C@H]2N(C)C1.O=C(O)/C=C\\C(=O)O [ERGONOVINE MALEATE]", "Bacterial Biotransformation": "Compound metabolized"}
{"Molecule": "CCN(CC)CCNC(=O)c1cc(Cl)c(N)cc1OC [METOCLOPRAMIDE]", "Bacterial Biotransformation": "Compound NOT metabolized"}

// recorded Bacterial Biotransformation for COc1ccc2[nH]c([S+]([O-])Cc3ncc(C)c(OC)c3C)nc2c1 (stereo unspecified) : Compound metabolized

`Cc1cc2c(cc1S(N)(=O)=O)S(=O)(=O)CCC2` yielded Bacterial Biotransformation of Compound NOT metabolized

Reported Bacterial Biotransformation for `COC1=CC(=O)C[C@@H](C)[C@]12Oc1c(Cl)c(OC)cc(OC)c1C2=O` was Compound metabolized

// Bacterial Biotransformation value for `Cc1nc2n(c(=O)c1CCN1CCC(c3noc4cc(F)ccc34)CC1)CCCC2` : Compound metabolized

Bacterial Biotransformation reported for this molecule `Cc1ccc(/C(=C\CN2CCCC2)c2ccccn2)cc1` : Compound NOT metabolized

---

- Method: The drug is tested on Z-029 corresponding to rat gut metagenome with ENA study accession number: PRJEB37062 and ENA sample accession number: ERS12561828 for biotransformation under anaerobic condition. The drug concentrations were measured over 9 timepoints collected between 0 and 24 hours of incubation by liquid-chromatography-coupled mass spectrometry (LC–MS)
- Run parameters: 2 µM
Value kind: Bacterial Biotransformation

{"Molecule": "CCOC(=O)[C@H](CCc1ccccc1)N[C@H]1CCc2ccccc2N(CC(=O)O)C1=O", "Bacterial Biotransformation": "Compound metabolized"}
{"Molecule": "CC(C)NCC(O)c1ccc(NS(C)(=O)=O)cc1 (stereo not drawn)", "Bacterial Biotransformation": "Compound NOT metabolized"}
{"Molecule": "COc1ccc2[nH]c([S+]([O-])Cc3ncc(C)c(OC)c3C)nc2c1 (stereo not drawn)", "Bacterial Biotransformation": "Compound metabolized"}
{"Molecule": "CCCc1nn(C)c2c(=O)[nH]c(-c3cc(S(=O)(=O)N4CCN(C)CC4)ccc3OCC)nc12.O=C(O)CC(O)(CC(=O)O)C(=O)O [SILDENAFIL CITRATE]", "Bacterial Biotransformation": "Compound NOT metabolized"}
{"Molecule": "CN(C)CC(c1ccc(O)cc1)C1(O)CCCCC1.O=C(O)CCC(=O)O (stereo not drawn) [DESVENLAFAXINE SUCCINATE]", "Bacterial Biotransformation": "Compound NOT metabolized"}

So, CC(C)NCC(O)COc1ccc(COCCOC(C)C)cc1.CC(C)NCC(O)COc1ccc(COCCOC(C)C)cc1.O=C(O)/C=C/C(=O)O (stereo not drawn) [BISOPROLOL FUMARATE] ? Its Bacterial Biotransformation was Compound NOT metabolized

Lab note: measured Bacterial Biotransformation of COc1ccc2[nH]c([S+]([O-])Cc3ncc(C)c(OC)c3C)nc2n1 (stereo not drawn) was Compound metabolized

Record summary for `CCCc1nc2c(C)cc(-c3nc4ccccc4n3C)cc2n1Cc1ccc(-c2ccccc2C(=O)O)cc1` : reported Bacterial Biotransformation = Compound NOT metabolized

---

- Method: The drug is tested on Z-005 corresponding to metagenome with ENA study accession number: PRJEB37062 and ENA sample accession number: ERS12561805 for biotransformation under anaerobic condition. The drug concentrations were measured over 9 timepoints collected between 0 and 24 hours of incubation by liquid-chromatography-coupled mass spectrometry (LC–MS)
- Run parameters: 2 µM
Value kind: Bacterial Biotransformation

Solved entries (count: 4):
{"Compound": "Cc1cn([C@H]2C[C@H](N=[N+]=[N-])[C@@H](CO)O2)c(=O)[nH]c1=O", "Bacterial Biotransformation": "Compound NOT metabolized"}
{"Compound": "CCCC(=O)Nc1ccc(OCC(O)CNC(C)C)c(C(C)=O)c1 (stereo unspecified)", "Bacterial Biotransformation": "Compound NOT metabolized"}
{"Compound": "CN1C[C@H](C(=O)N[C@]2(C)O[C@@]3(O)[C@@H]4CCCN4C(=O)[C@H](Cc4ccccc4)N3C2=O)C=C2c3cccc4[nH]cc(c34)C[C@H]21.CN1C[C@H](C(=O)N[C@]2(C)O[C@@]3(O)[C@@H]4CCCN4C(=O)[C@H](Cc4ccccc4)N3C2=O)C=C2c3cccc4[nH]cc(c34)C[C@H]21.O=C(O)C(O)C(O)C(=O)O [ERGOTAMINE TARTRATE]", "Bacterial Biotransformation": "Compound NOT metabolized"}
{"Compound": "COc1ccc2c3c1O[C@H]1C[C@@H](O)C=C[C@@]31CCN(C)C2", "Bacterial Biotransformation": "Compound NOT metabolized"}

Please turn your attention to the following entry.
Memo: `N#Cc1ccc(C(c2ccc(C#N)cc2)n2cncn2)cc1` , reported Bacterial Biotransformation: Compound NOT metabolized

---

- Method: The drug is tested on Z-022 corresponding to mouse gut metagenome with ENA study accession number: PRJEB37062 and ENA sample accession number: ERS12561821 for biotransformation under anaerobic condition. The drug concentrations were measured over 9 timepoints collected between 0 and 24 hours of incubation by liquid-chromatography-coupled mass spectrometry (LC–MS)
- Run parameters: 2 µM
Value kind: Bacterial Biotransformation

{"Compound": "CC(C)NCC(O)COc1ccc(CCOCC2CC2)cc1 (stereo not drawn) [BETAXOLOL]", "Result": "Compound NOT metabolized"}
{"Compound": "Nc1c2c(nc3ccccc13)CCCC2 [TACRINE]", "Result": "Compound NOT metabolized"}
{"Compound": "COc1ccccc1N1CCN(CC(O)COc2cccc3ccccc23)CC1 (stereo not drawn) [NAFTOPIDIL]", "Result": "Compound metabolized"}
{"Compound": "COc1ccc2c(c1OC)C(=O)O[C@@H]2[C@H]1c2c(cc3c(c2OC)OCO3)CCN1C [NOSCAPINE]", "Result": "Compound metabolized"}
{"Compound": "CCc1nn(CCCN2CCN(c3cccc(Cl)c3)CC2)c(=O)n1CCOc1ccccc1 [NEFAZODONE]", "Result": "Compound NOT metabolized"}

According to the records, this compound C[C@@H](CO)NC(=O)[C@@H]1C=C2c3cccc4[nH]cc(c34)C[C@H]2N(C)C1.O=C(O)/C=C\C(=O)O [ERGONOVINE MALEATE] displays Bacterial Biotransformation of Compound NOT metabolized

Consider CC[C@@H](CO)NC(=O)[C@@H]1C=C2c3cccc4c3c(cn4C)C[C@H]2N(C)C1.O=C(O)/C=C\C(=O)O [METHYSERGIDE MALEATE] . Its measured Bacterial Biotransformation is Compound NOT metabolized

Reported Bacterial Biotransformation for CN1C(=O)CC(C)(c2ccccc2)C1=O (stereo not drawn) [METHSUXIMIDE] was Compound metabolized
